Assay: general pharmacokinetics/pharmacodynamics of siponimod (lymphocyte counts, half-life, brain penetration)
Type: in vivo
Settings: in vivo
Method: Siponimod is a second generation S1P receptor modulator that reduces peripheral lymphocyte counts approximately 4-6 hours (h) after the first dose. […] Siponimod's mode of action is believed to include S1P1-mediated prevention of effector lymphocyte recirculation from lymphatic tissue to sites of inflammation, such as the central nervous system (CNS). In addition, there may be direct beneficial effects in the CNS mediated by S1P1 and/or S1P5. […]
endpointLabel: half-life

Task: Fill in reported half-life for this entry: CCc1cc(/C(C)=N/OCc2ccc(C3CCCCC3)c(C(F)(F)F)c2)ccc1CN1CC(C(=O)O)C1
Result: ~1800 min

* * *

Experiment: i.v. versus oral absolute bioavailability study in healthy subjects (CBAF312A2126), PK and PD
Assay type: in vivo, human
Settings: human, in vivo, 0.25 mg; oral, after dosing; read-out: median oral Tmax
endpointLabel: Tmax (h)
Output spec: scalar in h, unitless text.

Task: Report measured Tmax; entry is CCc1cc(/C(C)=N/OCc2ccc(C3CCCCC3)c(C(F)(F)F)c2)ccc1CN1CC(C(=O)O)C1
Result: 8
